Recorded values, source patent US20070093449A1.

assay: Plasma pharmacokinetics of tipifarnib after oral, 2-hour i.v. and continuous i.v. administration in cancer patients; assay type: in vivo, human; conditions: human, plasma; oral 200 mg b.i.d., Day 4, n=24; read-out: arithmetic mean AUC0-10h (±SD)
measured-endpoint: AUC(0-t) (ng·h/mL)
All answers are understood in ng·h/mL, so give the number only.

Consider the molecule Cn1cncc1[C@@](N)(c1ccc(Cl)cc1)c1ccc2c(c1)c(-c1cccc(Cl)c1)cc(=O)n2C [tipifarnib] . State its measured AUC(0-t).
3990
